- Test system: TRITICUM AESTIVUM, CV. APOLLO
- assay_explanation: Preemergence herbicidal evaluation, TRZAWO (Wheat, Winter, CV. APOLLO)
- Format: in vivo
- condition_parameters: 0.250 kg/ha, rated four to five weeks after treatment
Assign Herbicide rating (0-9) TRZAWO to each entry below.
Kindly provide the number alone.

Challenge: Can you look up Herbicide rating (0-9) TRZAWO on TRITICUM AESTIVUM, CV. APOLLO for CC(C)OC(=O)Cn1c(=O)n(C)c(=O)n(-c2cc(N3C(=O)c4cccc(F)c4C3=O)c(F)cc2Cl)c1=O ?
Response given: 0.0

Challenge: Can you look up Herbicide rating (0-9) TRZAWO on TRITICUM AESTIVUM, CV. APOLLO for COC(=O)Cn1c(=O)n(C)c(=O)n(-c2cc(N3C(=O)C4=C(CCCC4)C3=O)c(F)cc2Cl)c1=O ?
Response given: 0.0

Challenge: Can you look up Herbicide rating (0-9) TRZAWO on TRITICUM AESTIVUM, CV. APOLLO for COC(=O)Cn1c(=O)n(C)c(=O)n(-c2cc(N3C(=O)C4=C(CCCC4)C3=O)c(F)cc2F)c1=O ?
Response given: 0.0

Challenge: Can you look up Herbicide rating (0-9) TRZAWO on TRITICUM AESTIVUM, CV. APOLLO for COC(=O)Cn1c(=O)n(C)c(=O)n(-c2cc(N3C(=O)C4=C(CCCC4)C3=O)ccc2F)c1=O ?
Response given: 0.0

Challenge: Can you look up Herbicide rating (0-9) TRZAWO on TRITICUM AESTIVUM, CV. APOLLO for COC(=O)Cn1c(=O)n(C)c(=O)n(-c2cc(N3C(=O)C4=C(CCCC4)C3=O)c(Cl)cc2Cl)c1=O ?
Response given: 2.0

Challenge: Can you look up Herbicide rating (0-9) TRZAWO on TRITICUM AESTIVUM, CV. APOLLO for CCOC(=O)Cn1c(=O)[nH]c(=O)n(-c2ccc(F)c(N3C(=O)C4=C(CCCC4)C3=O)c2)c1=O ?
Response given: 0.0
